Experiment: Drug concentration in CD-1 mouse brain at 10 mg/kg, ip measured after 2 hrs by UPLC analysis
Type: ADME, organism-based
Settings: read-out: Ct
Readout Kind: concentration at 2 h
Answer by giving the amount and then stating its unit.

stdin: What does the data say about its concentration at 2 h? Entry: `N#Cc1ccc(C[C@H](NC(=O)Nc2ccc(F)cc2)C(=O)N2CCc3ccc(F)cc32)cc1`
stdout: 37 ng/g

###

Test Target: N-formyl peptide receptor 2 (Homo sapiens) (UniProt P25090)
Sequence (P25090 whole entry): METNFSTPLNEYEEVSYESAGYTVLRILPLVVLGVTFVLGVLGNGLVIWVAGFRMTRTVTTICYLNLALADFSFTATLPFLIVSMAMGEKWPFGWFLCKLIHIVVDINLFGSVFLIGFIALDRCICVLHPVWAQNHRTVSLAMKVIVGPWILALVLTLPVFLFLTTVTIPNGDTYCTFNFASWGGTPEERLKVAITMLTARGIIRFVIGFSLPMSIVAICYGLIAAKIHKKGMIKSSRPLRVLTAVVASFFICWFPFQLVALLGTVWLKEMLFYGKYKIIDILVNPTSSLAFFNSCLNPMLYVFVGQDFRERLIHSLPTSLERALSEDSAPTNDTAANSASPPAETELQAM
Experiment: Agonist activity at human FPR2 transfected in HL-60 cells assessed as induction of intracellular calcium ions mobilization using WKYMVM as substrate preincubated for 10 mins followed by substrate addition and measured every 5 seconds for 240 secs by Fluo-4-AM dye based fluorescent assay relative to control
Type: functional, cell-based
Settings: filed as agonist
Readout Kind: Efficacy (%)
Please respond with the number in % and leave the unit unwritten.

stdin: What does the data say about its Efficacy? Entry: `N#Cc1ccc(C[C@@H](NC(=O)Nc2ccc(F)cc2)C(=O)N2CCCC2)cc1`
stdout: 105

stdin: What does the data say about its Efficacy? Entry: `N#Cc1ccc(C[C@H](NC(=O)Nc2ccc(F)cc2)C(=O)N2CCCC2)cc1`
stdout: 100

stdin: What does the data say about its Efficacy? Entry: `N#Cc1ccc(C[C@@H](NC(=O)Nc2ccc(F)cc2)C(=O)N2CCCc3ccccc32)cc1`
stdout: 175

stdin: What does the data say about its Efficacy? Entry: `N#Cc1ccc(C[C@H](NC(=O)Nc2ccc(F)cc2)C(=O)N2Cc3ccc(F)cc3C2)cc1`
stdout: 70

stdin: What does the data say about its Efficacy? Entry: N#Cc1ccc(C[C@@H](NC(=O)Nc2ccc(F)cc2)C(=O)NC2CCCCNC2=O)cc1 (stereo partly specified)
stdout: 140

stdin: What does the data say about its Efficacy? Entry: `N#Cc1ccc(C[C@H](NC(=O)Nc2ccc(F)cc2)C(=O)N2CCC(F)(F)CC2)cc1`
stdout: 80

stdin: What does the data say about its Efficacy? Entry: N#Cc1ccc(C[C@H](NC(=O)Nc2ccc(F)cc2)C(=O)NC2CCCCNC2=O)cc1 (stereo partly specified)
stdout: 105

stdin: What does the data say about its Efficacy? Entry: `N#Cc1ccc(C[C@H](NC(=O)Nc2ccc(F)cc2)C(=O)N2CCCc3ccccc32)cc1`
stdout: 120

stdin: What does the data say about its Efficacy? Entry: `N#Cc1ccc(C[C@@H](NC(=O)Nc2ccc(F)cc2)C(=O)N2Cc3ccc(F)cc3C2)cc1`
stdout: 45

stdin: What does the data say about its Efficacy? Entry: `N#Cc1ccc(C[C@@H](NC(=O)Nc2ccc(F)cc2)C(=O)N2CCc3cc(F)ccc32)cc1`
stdout: 90

stdin: What does the data say about its Efficacy? Entry: `N#Cc1ccc(C[C@H](NC(=O)Nc2ccc(F)cc2)C(=O)N2CCc3cc(F)ccc32)cc1`
stdout: 110

###

Test Target: fMet-Leu-Phe receptor (Homo sapiens, UniProt P21462)
Sequence (P21462 whole entry): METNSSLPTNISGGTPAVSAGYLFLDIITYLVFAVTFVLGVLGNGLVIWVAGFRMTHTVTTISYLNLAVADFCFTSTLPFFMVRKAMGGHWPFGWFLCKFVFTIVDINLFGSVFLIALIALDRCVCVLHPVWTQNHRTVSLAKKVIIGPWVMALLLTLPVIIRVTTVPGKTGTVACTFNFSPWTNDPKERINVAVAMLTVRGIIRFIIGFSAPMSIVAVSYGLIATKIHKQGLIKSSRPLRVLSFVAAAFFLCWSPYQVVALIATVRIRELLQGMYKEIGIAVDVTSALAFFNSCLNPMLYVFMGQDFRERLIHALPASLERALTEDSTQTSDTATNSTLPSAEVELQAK
Experiment: Agonist activity at human FPR1 transfected in human HL-60 cells assessed as increase in calcium mobilization measured every 5 seconds for 240 secs by Fluo-4-AM dye based fluorescence assay
Please provide measured pEC50 for the entries that follow.
Hey, just a heads up that pEC50 is the negative log base 10 of the concentration in molar.

stdin: Short answer please: pEC50, fMet-Leu-Phe receptor (Homo sapiens, UniProt P21462), entry N#Cc1ccc(C[C@H](NC(=O)Nc2ccc(F)cc2)C(=O)NC2CCCCNC2=O)cc1 (stereo not given in full)
stdout: 6.11

stdin: Short answer please: pEC50, fMet-Leu-Phe receptor (Homo sapiens, UniProt P21462), entry `N#Cc1ccc(C[C@H](NC(=O)Nc2ccc(F)cc2)C(=O)N2CCCc3ccccc32)cc1`
stdout: 5.92

stdin: Short answer please: pEC50, fMet-Leu-Phe receptor (Homo sapiens, UniProt P21462), entry `N#Cc1ccc(C[C@@H](NC(=O)Nc2ccc(F)cc2)C(=O)N2Cc3ccc(F)cc3C2)cc1`
stdout: 5.25

stdin: Short answer please: pEC50, fMet-Leu-Phe receptor (Homo sapiens, UniProt P21462), entry `N#Cc1ccc(C[C@H](NC(=O)Nc2ccc(F)cc2)C(=O)N2CCCC2)cc1`
stdout: 4.82

stdin: Short answer please: pEC50, fMet-Leu-Phe receptor (Homo sapiens, UniProt P21462), entry `N#Cc1ccc(C[C@@H](NC(=O)Nc2ccc(F)cc2)C(=O)N2CCc3cc(F)ccc32)cc1`
stdout: 5.74

stdin: Short answer please: pEC50, fMet-Leu-Phe receptor (Homo sapiens, UniProt P21462), entry `N#Cc1ccc(C[C@H](NC(=O)Nc2ccc(F)cc2)C(=O)N2CCc3cc(F)ccc32)cc1`
stdout: 5.32

stdin: Short answer please: pEC50, fMet-Leu-Phe receptor (Homo sapiens, UniProt P21462), entry `N#Cc1ccc(C[C@@H](NC(=O)Nc2ccc(F)cc2)C(=O)N2CCCC2)cc1`
stdout: 4.58

stdin: Short answer please: pEC50, fMet-Leu-Phe receptor (Homo sapiens, UniProt P21462), entry `N#Cc1ccc(C[C@@H](NC(=O)Nc2ccc(F)cc2)C(=O)N2CCCc3ccccc32)cc1`
stdout: 6.36

stdin: Short answer please: pEC50, fMet-Leu-Phe receptor (Homo sapiens, UniProt P21462), entry N#Cc1ccc(C[C@@H](NC(=O)Nc2ccc(F)cc2)C(=O)NC2CCCCNC2=O)cc1 (stereo not given in full)
stdout: 5.38

stdin: Short answer please: pEC50, fMet-Leu-Phe receptor (Homo sapiens, UniProt P21462), entry `N#Cc1ccc(C[C@H](NC(=O)Nc2ccc(F)cc2)C(=O)N2Cc3ccc(F)cc3C2)cc1`
stdout: 5.48
